molecular target: UniProt:O60674
Sequence (O60674 whole entry): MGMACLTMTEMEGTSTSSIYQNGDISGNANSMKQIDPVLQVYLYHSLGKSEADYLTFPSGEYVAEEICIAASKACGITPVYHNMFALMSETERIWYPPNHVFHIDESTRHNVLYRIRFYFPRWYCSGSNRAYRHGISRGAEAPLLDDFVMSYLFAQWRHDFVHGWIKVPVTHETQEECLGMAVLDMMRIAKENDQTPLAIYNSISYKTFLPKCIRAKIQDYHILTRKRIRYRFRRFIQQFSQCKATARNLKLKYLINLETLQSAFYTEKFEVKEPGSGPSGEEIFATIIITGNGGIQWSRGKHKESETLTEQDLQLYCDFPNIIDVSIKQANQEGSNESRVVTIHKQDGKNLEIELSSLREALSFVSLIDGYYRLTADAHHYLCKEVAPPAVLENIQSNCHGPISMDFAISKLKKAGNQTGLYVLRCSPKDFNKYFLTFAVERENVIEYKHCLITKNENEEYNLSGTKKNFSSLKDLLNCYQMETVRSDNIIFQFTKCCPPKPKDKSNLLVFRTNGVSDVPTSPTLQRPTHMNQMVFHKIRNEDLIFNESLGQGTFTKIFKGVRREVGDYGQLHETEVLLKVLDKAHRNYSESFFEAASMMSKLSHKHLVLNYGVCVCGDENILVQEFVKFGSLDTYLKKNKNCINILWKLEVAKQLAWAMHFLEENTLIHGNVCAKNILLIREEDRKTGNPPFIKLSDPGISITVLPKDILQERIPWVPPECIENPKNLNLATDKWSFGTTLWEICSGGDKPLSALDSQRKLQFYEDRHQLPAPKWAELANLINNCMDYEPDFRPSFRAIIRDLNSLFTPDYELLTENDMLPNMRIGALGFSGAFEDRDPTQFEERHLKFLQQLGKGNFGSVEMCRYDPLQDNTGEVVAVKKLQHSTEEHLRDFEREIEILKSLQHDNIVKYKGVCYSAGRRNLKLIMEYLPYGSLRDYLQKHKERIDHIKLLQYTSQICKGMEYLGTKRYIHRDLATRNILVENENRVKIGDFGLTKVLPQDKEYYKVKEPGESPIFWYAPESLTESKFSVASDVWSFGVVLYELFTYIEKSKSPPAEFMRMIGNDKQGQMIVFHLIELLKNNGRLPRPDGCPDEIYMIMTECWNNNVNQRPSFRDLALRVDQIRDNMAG
pIC50: −log10 of the molar value. Where a name gives a salt, the structure may show the parent alone.
REPORTED PROPERTY: pIC50

MOLECULE: CCC(CC)n1cc(-c2nc(-c3cnn(C[C@H](O)[C@H](C)O)c3)cn3nccc23)cn1 [Example 65]
pIC50: 7.00 to 8.00
//
MOLECULE: CCC(CC)n1cc(-c2nc(-c3cnn(CCNC4CC4)c3)cn3nccc23)cn1 [Example 134, trifluoroacetate]
pIC50: 7.00 to 8.00

## Task Sample CCC(CC)n1cc(-c2nc(-c3cnn(CC(C)(C)O)c3)cn3nccc23)cn1 [Example 117] — what was its pIC50?
## Result 6.00 to 7.00
